pEC50 overview
Target: T1, human NMI (N-myc Interacting protein), recombinant protein (human, UniProt Q13287 1-307, limits assumed)
T1 construct: Gene ID: 9111; also called hNMI; antigen
T1 sequence (looked up): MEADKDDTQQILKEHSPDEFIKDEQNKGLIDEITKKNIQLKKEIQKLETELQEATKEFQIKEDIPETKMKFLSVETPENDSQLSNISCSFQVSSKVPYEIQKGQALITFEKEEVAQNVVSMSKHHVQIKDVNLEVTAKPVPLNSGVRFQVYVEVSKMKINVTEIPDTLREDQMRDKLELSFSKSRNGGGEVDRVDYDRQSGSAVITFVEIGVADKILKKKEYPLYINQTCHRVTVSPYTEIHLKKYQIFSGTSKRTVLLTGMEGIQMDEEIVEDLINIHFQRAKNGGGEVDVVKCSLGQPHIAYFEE
Assay: ELISA, binding to hNMI
Here pEC50 is given on a logarithmic scale as minus log10 of the concentration in mol/L.

Example entries begin here.
B-8-1 (antibody, V domains shown, also called B-8 Y93E (VL)) VH: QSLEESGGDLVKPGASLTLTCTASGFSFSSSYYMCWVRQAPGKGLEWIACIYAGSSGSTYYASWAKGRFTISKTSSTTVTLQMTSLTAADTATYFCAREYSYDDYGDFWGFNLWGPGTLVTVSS VL: ALVMTQTPSSVSAAVGGTVTINCQASQNIYTNLAWYQQKPGQPPKLLIYGASNLESGVPSRFKGSGSGTEYTLTISDLECDDAATYYCQSSLESRIADRANAFGGGTEVVVK : 9.16
B-8-4 (antibody, V domains shown, also called B-8 Y61E (VH)) VH: QSLEESGGDLVKPGASLTLTCTASGFSFSSSYYMCWVRQAPGKGLEWIACIYAGSSGSTYEASWAKGRFTISKTSSTTVTLQMTSLTAADTATYFCAREYSYDDYGDFWGFNLWGPGTLVTVSS VL: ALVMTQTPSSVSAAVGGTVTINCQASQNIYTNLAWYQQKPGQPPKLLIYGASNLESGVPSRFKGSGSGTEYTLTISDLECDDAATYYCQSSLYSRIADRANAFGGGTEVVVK : 9.75

What value of pEC50 has been recorded for this entry: B-8-2 (antibody, V domains shown, also called B-8 S91R (VL)) VH: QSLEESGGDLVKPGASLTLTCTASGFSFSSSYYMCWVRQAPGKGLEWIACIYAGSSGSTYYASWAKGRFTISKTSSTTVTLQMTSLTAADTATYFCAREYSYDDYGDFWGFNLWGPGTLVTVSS VL: ALVMTQTPSSVSAAVGGTVTINCQASQNIYTNLAWYQQKPGQPPKLLIYGASNLESGVPSRFKGSGSGTEYTLTISDLECDDAATYYCQSRLYSRIADRANAFGGGTEVVVK
8.84
